Catalogue of compounds with associated Activity
# Tested on: CHO
# EXPERIMENT_SUMMARY: Antioxidant activity in CHO cells assessed as protection from H2O2-induced toxicity at 50 uM pretreated for 2 hrs before H2O2 challenge measured after 1 hr by MTT assay
# Format: functional, Cricetulus griseus
MEASURED_PROPERTY: Activity (%)

| COMPOUND | OBSERVED |
| --- | --- |
| COc1ccc(CCN(C)CCCC(CNC(=O)C2=CC(C)(C)NC2(C)C)(c2ccc(OC)c(OC)c2)C(C)C)cc1OC (centres undefined) | 53.5 |
| COc1ccc(CCN(C)CCCC(CNCC2=CC(C)(C)NC2(C)C)(c2ccc(OC)c(OC)c2)C(C)C)cc1OC (centres undefined) | 71.2 |
| COc1ccc(CCN(C)CCC[C@@](CNC(=O)C2=CC(C)(C)N(O)C(C)(C)C2)(c2ccc(OC)c(OC)c2)C(C)C)cc1OC | 46.1 |
| COc1ccc(CCN(C)CCCC(CNC(=O)C2=C(c3ccccc3)C(C)(C)N(O)C2(C)C)(c2ccc(OC)c(OC)c2)C(C)C)cc1OC (centres undefined) | 68.3 |
